These measurements were taken from patent US11987648B2.

Each entry below carries its reported Emax.
- Target entity: SST2 (Homo sapiens)
- Sequence (P30874 whole entry): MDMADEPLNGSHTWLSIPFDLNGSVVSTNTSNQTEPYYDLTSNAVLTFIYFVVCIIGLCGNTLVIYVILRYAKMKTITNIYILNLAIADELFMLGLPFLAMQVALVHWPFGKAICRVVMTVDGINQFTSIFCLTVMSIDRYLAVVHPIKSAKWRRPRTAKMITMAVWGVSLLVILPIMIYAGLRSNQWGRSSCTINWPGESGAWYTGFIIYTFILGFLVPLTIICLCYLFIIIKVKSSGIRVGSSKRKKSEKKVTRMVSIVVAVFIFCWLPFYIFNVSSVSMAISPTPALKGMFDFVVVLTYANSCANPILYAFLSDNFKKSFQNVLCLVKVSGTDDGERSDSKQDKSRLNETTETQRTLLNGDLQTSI
- Assay summary: Hit Hunter cAMP XS+ assay, SST2 activation via Gi (reduction of forskolin-stimulated cAMP)
- Type: cell-based
- Test settings: read-out: SST2 (EMax)
*1 amine or outer side, *2 acyl side, *3 side chain or, on linkers, in order; H or OH if unused. Where a SMILES comes first, the peptide text is derived from it. Side-chain parts run from the residue outwards. [ ]: non-standard residue; d: D form. The star is where a group is joined. Ala(piperidin-4-yl) = O=C([C@H](CC1CCN([*:3])CC1)N[*:1])[*:2]; dTrp(5-Me) = Cc1ccc2[nH]cc(C[C@@H](N)C(=O)O)c2c1; Ethylenediamine = C(CN[*:2])N[*:1]; d(hPhe) = N[C@H](CCc1ccccc1)C(=O)O; Hyp = O=C(O)[C@@H]1C[C@@H](O)CN1; 3Pal = N[C@@H](Cc1cccnc1)C(=O)O; Phg = N[C@H](C(=O)O)c1ccccc1; CO = O=C([*:1])[*:2]; Bn = c1ccc(C*)cc1
Report the value in % with no unit label.

Compound | Emax (%)
NCCNC(=O)O[C@@H]1C[C@H]2C(=O)N[C@H](CCc3ccccc3)C(=O)N[C@H](Cc3c[nH]c4ccccc34)C(=O)N[C@@H](CC3CCNCC3)C(=O)N[C@@H](Cc3ccc(OCc4ccccc4)cc3)C(=O)N[C@@H](Cc3cccnc3)C(=O)N2C1 [Example 15] (cyclo([3Pal][Hyp]([CO-Ethylenediamine])[d(hPhe)][dW][Ala(piperidin-4-yl)]Y(Bn))) | 55.5

Attention now turns to another entry.
Could you tell me which Emax is on file for Cc1ccc2[nH]cc(C[C@H]3NC(=O)[C@H](c4ccccc4)NC(=O)[C@@H]4C[C@@H](OC(=O)NCCN)CN4C(=O)[C@H](Cc4ccccc4)NC(=O)[C@H](Cc4ccc(OCc5ccccc5)cc4)NC(=O)[C@H](CC4CCNCC4)NC3=O)c2c1 [Example 13] (cyclo(F[Hyp]([CO-Ethylenediamine])[Phg][dTrp(5-Me)][Ala(piperidin-4-yl)]Y(Bn))) ? 97.6
